System: Alternaria solani
procedureDetails: In vivo preventive test on Alternaria solani (tomato)
experimentalContext: 500 ppm of active ingredient, evaluated 7 days after inoculation
Recorded Efficacy for the following molecules

>  <molecule>
Cn1nc(C(F)F)c(C(=O)N2CCCCC2C2CCCCC2)c1Cl (centres unmarked)

>  <assayedSystem>
Alternaria solani

>  <Efficacy, %>
88

$$$$
>  <molecule>
Cn1cc(C(=O)N2CCCC2C2CCCCC2)c(C(F)F)n1 (centres unmarked)

>  <assayedSystem>
Alternaria solani

>  <Efficacy, %>
89

$$$$
>  <molecule>
Cn1cc(C(=O)N2CCCC2CC2CCCCC2)c(C(F)F)n1 (centres unmarked)

>  <assayedSystem>
Alternaria solani

>  <Efficacy, %>
89

$$$$
>  <molecule>
CCCCCCC1CCCN1C(=O)c1cn(C)nc1C(F)F (centres unmarked)

>  <assayedSystem>
Alternaria solani

>  <Efficacy, %>
94

$$$$
>  <molecule>
Cn1nc(C(F)F)c(C(=O)N2CCCCC2C2CCCCC2)c1F (centres unmarked)

>  <assayedSystem>
Alternaria solani

>  <Efficacy, %>
94

$$$$
>  <molecule>
Cn1nc(C(F)F)c(C(=O)N2CCCC2CC2CC3CCC2C3)c1F (centres unmarked)

>  <assayedSystem>
Alternaria solani

>  <Efficacy, %>
100

$$$$
>  <molecule>
Cn1nc(C(F)F)c(C(=O)N2CCCCC2CCOCC2CCC2)c1Cl (centres unmarked)

>  <assayedSystem>
Alternaria solani

>  <Efficacy, %>
88

$$$$
>  <molecule>
CCCCCCC1CCCCN1C(=O)c1c(C(F)F)nn(C)c1F (centres unmarked)

>  <assayedSystem>
Alternaria solani

>  <Efficacy, %>
100

$$$$
>  <molecule>
Cn1nc(C(F)F)c(C(=O)N2CCCCC2CCOCCC2CCCCC2)c1F (centres unmarked)

>  <assayedSystem>
Alternaria solani

>  <Efficacy, %>
89

$$$$
>  <molecule>
Cn1nc(C(F)F)c(C(=O)N2CCCC2CC2CCCCC2)c1Cl (centres unmarked)

>  <assayedSystem>
Alternaria solani

>  <Efficacy, %>
94

$$$$
>  <molecule>
CCCOCCC1CCCCN1C(=O)c1c(C(F)F)nn(C)c1F (centres unmarked)

>  <assayedSystem>
Alternaria solani

>  <Efficacy, %>
94

$$$$
>  <molecule>
Cn1nc(C(F)F)c(C(=O)N2CCCCC2CCOCC2CC2)c1F (centres unmarked)

>  <assayedSystem>
Alternaria solani

>  <Efficacy, %>
94

$$$$
>  <molecule>
CCCCCCC1CCCN1C(=O)c1c(C(F)F)nn(C)c1Cl (centres unmarked)

>  <assayedSystem>
Alternaria solani

>  <Efficacy, %>
94

$$$$
>  <molecule>
Cn1cc(C(=O)N2CCCCC2C2CCCCC2)c(C(F)F)n1 (centres unmarked)

>  <assayedSystem>
Alternaria solani

>  <Efficacy, %>
90

$$$$
>  <molecule>
Cn1nc(C(F)F)c(C(=O)N2CCCCC2CC2CCCCC2)c1F (centres unmarked)

>  <assayedSystem>
Alternaria solani

>  <Efficacy, %>
100

$$$$
>  <molecule>
Cn1cc(C(=O)N2CCCC2CC2CC3CCC2C3)c(C(F)F)n1 (centres unmarked)

>  <assayedSystem>
Alternaria solani

>  <Efficacy, %>
94

$$$$
>  <molecule>
Cn1nc(C(F)F)c(C(=O)N2CCCC2CC2CCCCC2)c1F (centres unmarked)

>  <assayedSystem>
Alternaria solani

>  <Efficacy, %>
94

$$$$
>  <molecule>
Cn1nc(C(F)F)c(C(=O)N2CCCC2CC2CC3CCC2C3)c1Cl (centres unmarked)

>  <assayedSystem>
Alternaria solani

>  <Efficacy, %>
88

$$$$
>  <molecule>
Cn1cc(C(=O)N2CCCCC2CCOCCC2CCCCC2)c(C(F)F)n1 (centres unmarked)

>  <assayedSystem>
Alternaria solani

>  <Efficacy, %>
78

$$$$
>  <molecule>
CCCCCCC1CCCCN1C(=O)c1c(C(F)F)nn(C)c1Cl (centres unmarked)

>  <assayedSystem>
Alternaria solani

>  <Efficacy, %>
100

$$$$
